The following compounds are shown together with reported residual activity values.
biological target: RPS6KA5 KD1 KD2 (human) (UniProt O75582); experiment: radiometric filter-binding kinase assay; settings: compound 0.1 µM
Sequence (O75582 whole entry, looked up): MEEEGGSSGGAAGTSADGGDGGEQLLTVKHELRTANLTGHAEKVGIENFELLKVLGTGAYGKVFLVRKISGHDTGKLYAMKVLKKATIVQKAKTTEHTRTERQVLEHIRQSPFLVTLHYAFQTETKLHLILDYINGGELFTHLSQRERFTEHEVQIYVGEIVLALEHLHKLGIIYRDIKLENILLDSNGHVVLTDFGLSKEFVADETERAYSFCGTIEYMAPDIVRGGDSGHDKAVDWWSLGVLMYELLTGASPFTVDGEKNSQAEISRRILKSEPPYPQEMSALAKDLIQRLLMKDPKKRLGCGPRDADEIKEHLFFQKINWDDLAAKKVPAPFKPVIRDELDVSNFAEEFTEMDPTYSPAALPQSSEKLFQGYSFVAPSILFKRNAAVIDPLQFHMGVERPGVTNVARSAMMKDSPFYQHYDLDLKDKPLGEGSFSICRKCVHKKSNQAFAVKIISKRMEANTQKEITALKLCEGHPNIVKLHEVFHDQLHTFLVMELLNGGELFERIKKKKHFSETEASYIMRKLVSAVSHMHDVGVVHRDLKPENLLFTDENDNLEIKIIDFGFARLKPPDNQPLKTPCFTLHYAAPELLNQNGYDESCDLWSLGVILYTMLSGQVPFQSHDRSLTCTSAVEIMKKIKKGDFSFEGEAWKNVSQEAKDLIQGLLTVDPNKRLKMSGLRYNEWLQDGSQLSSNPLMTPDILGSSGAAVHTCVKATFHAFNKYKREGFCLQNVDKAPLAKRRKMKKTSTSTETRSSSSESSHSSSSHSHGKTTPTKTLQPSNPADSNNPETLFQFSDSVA
Only the number, expressed in %, is required.

Below are worked cases with known answers.
Cc1ccc(-c2ccc3c(ccc4sc5c(c43)NC[C@@H](C)NC5=O)n2)cn1	120
COc1ccc2c(c1)c1c3c(c4c5ccccc5n(C)c4c1n2CC(O)CN(C)C)C(=O)NC3=O (stereo not given)	11
c1ccc2c(-c3cnn4cc(-c5ccc(N6CCNCC6)cc5)cnc34)ccnc2c1	91

# input Please give the documented residual activity of COc1cc(O)c2c(c1)[C@H]1OC1C[C@H](O)[C@H](O)C(=O)/C=C\C[C@H](C)OC2=O (stereo not given in full)
# output 104

# input Please give the documented residual activity of O=C(N[C@@H](COc1ccc2[nH]c(=O)[nH]c2c1)c1ccccc1)c1cccn(Cc2ccc(F)c(F)c2)c1=O
# output 101
